- Test system: P388 leukemia ip, CD2F1 mice, survival T/C
- Protocol details: NCI In Vivo Anticancer Drug Screen. Data for tumor model P388 Leukemia (intraperitoneal) in CD2F1 (CDF1) mice
- Study conditions: endpoint: median survival time; dose: 50.0 mg/kg/injection; schedule: Q01DX009 (ip); vehicle: saline with Tween-80
Inconclusive results and toxic doses are left out. The calls were made as follows: active = survival T/C of 150% or more; inactive = T/C below 125% in these data.
Respond only with the outcome that fits, drawn from yes for active, no for inactive

Some solved cases for reference:
CC1(C)CC(COC(=O)c2c3ccccc3c3ccc4cccc5ccc2c3c54)CC(C)(C)N1O :: no
O=C(C[N+](=O)[O-])c1ccc(Cl)cc1 :: no
O=c1c(Br)cc(CN2CCOCC2)cc(CN2CCOCC2)c1O :: no
Cc1ccc(C)c(NC(=O)Oc2cc(C)c(Cl)c(C)c2)c1 :: no
OC1(c2nccc3ccccc23)CCN(CCc2ccccc2)CC1 :: no

We next turn to a different molecule, shown below.
Would you mind telling me which call this test gave "Cc1csc(NC(=O)Nc2ccc(F)cc2[N+](=O)[O-])n1" ?
no
